System: ULK1
setup conditions: concentration: 1 μM, replicates: in singlicate; n = 1;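 also: KINOMEscan kinase panel screen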
value kind: %Inh

CS(=O)(=O)CCNCc1ccc(-c2ccc3ncnc(Nc4ccc(OCc5ccccc5)c(Cl)c4)c3c2)o1.Cl 0%
CC(C)N1CCC(n2cnc(-c3ccc(F)cc3)c2-c2ccnc(N)n2)CC1 0%

Alright, here's another compound for you.
For the compound shown here, Cc1ccc(C)c(NC(=O)NCCNc2ccnc(Nc3ccc(F)cc3)n2)c1 , give the reported %Inh.
0%

====

// reported %Inh for each item listed
Test system: SLK
setup conditions: concentration: 1 μM, replicates: in singlicate; n = 1
Kindly answer with a numeric value in %, unit omitted.

Recorded results for 3 molecules are shown here.
molecule	%Inh [%]
Cc1cccc(-c2nc(Nc3ccc4[nH]nnc4c3)c3ccccc3n2)n1	0
Nc1nc(-c2ccc3c(N)n[nH]c3c2)cc(N2CCC[C@@H](C(=O)Nc3ccccc3)C2)n1.O=C(O)C(F)(F)F.O=C(O)C(F)(F)F	0
CC(C)(C)OC(=O)NC1CCCN(c2cc(-c3ccc4c(N)n[nH]c4c3)nc(N)n2)C1 (centres unmarked)	0

For the molecule shown here, COc1ccc(Nc2nccc(N3CCC(NC(=O)c4cccc(NC(C)=O)c4)C3)n2)cc1 (centres unmarked) , give the reported %Inh.
6

Another molecule to check: O=C(c1ccc(-c2cc(-c3c[nH]nc3-c3ccccn3)ccn2)cc1)N1CCCC1
3

Another molecule to check: CN1c2ccc(-c3ccc(C(=O)NCCO)cc3)cc2-c2[nH]ncc2S1(=O)=O
25

Another molecule to check: Cl.c1ccc(Cn2ncc3cc(Nc4ncnc5ccccc45)ccc32)cc1
0

Another molecule to check: Cc1ccc(NC(=O)c2cccc(C#N)c2)cc1-c1ccc(C(=O)Nc2ccncc2)cc1
0

====

Tested on: IRAK4
setup conditions: concentration: 1 μM, replicates: in singlicate; n = 1
value kind: %Inh

Recorded results for 3 compounds are shown here.
compound	%Inh
COc1ccc(Nc2nccc(N3CCC(NC(=O)c4cccc(NC(C)=O)c4)C3)n2)cc1 (stereo not shown)	0%
Cc1cccc(-c2nc(Nc3ccc4[nH]nnc4c3)c3ccccc3n2)n1	0%
CC(C)(C)OC(=O)NC1CCCN(c2cc(-c3ccc4c(N)n[nH]c4c3)nc(N)n2)C1 (stereo not shown)	8%

For the compound shown here, Cl.c1ccc(Cn2ncc3cc(Nc4ncnc5ccccc45)ccc32)cc1 , give the reported %Inh.
9%

====

System: FAK
Construct: gene PTK2
setup conditions: concentration: 1 μM, replicates: in singlicate; n = 1
value kind: %Inh (%)
Kindly answer with a numeric value in %, unit omitted.

Recorded results for 4 molecules are shown here.
molecule	%Inh / %
Cc1cc(N2CCC(NS(=O)(=O)c3ccc(F)cc3)CC2)nc(Nc2cccc(C#N)c2)n1.O=C(O)C(F)(F)F	0
Nc1nccc2scc(-c3ccc4c(c3)CCN4C(=O)Cc3cc(F)ccc3F)c12	0
NC(=O)c1sc(-n2cnc3ccccc32)cc1OCc1ccccc1F	0
COC(=O)c1cccc(NC(=O)NCCNc2ccnc(Nc3ccc(F)cc3)n2)c1	0

For the molecule shown here, CC(C)(C)c1ccc(-n2cnc3c(N)ncnc32)cc1 , give the reported %Inh.
0

Another molecule to check: CC(C)(C)OC(=O)NC1CCCN(c2cc(-c3ccc4c(N)n[nH]c4c3)nc(N)n2)C1 (stereo not drawn)
0

Another molecule to check: Fc1cccc(COc2ccc(Nc3ncnc4sc(-c5ccc[nH]5)cc34)cc2Cl)c1
0

Another molecule to check: c1ccc(-c2ccc3c(-c4ccnc(Nc5ccc6c(c5)OCCO6)n4)cnn3n2)cc1
6

Another molecule to check: COc1ccc(-c2oc3ncnc(N)c3c2-c2ccc(OC)cc2)cc1
0

Another molecule to check: COc1ccc(Nc2nccc(N3CCC(NC(=O)Nc4ccc5c(c4)OCO5)C3)n2)cc1 (stereo not drawn)
1

Another molecule to check: FC(F)(F)c1ccc(-c2cc(-c3c[nH]nc3-c3ccccn3)ccn2)cc1
0
